The measured values listed here are drawn from ChEMBL document CHEMBL1141690.

- measurement.target: Peroxisome proliferator-activated receptor gamma (Mus musculus)
- experimental.protocol: Displacement of [3H]rosiglitazone from mouse PPARgamma receptor at 10 uM by scintillation proximation assay
molecules and their reported inhibition

Answered cases to consult:
O=C1NC(=O)C(=Cc2ccc(OCCOc3ccc(Br)cc3)cc2)C(=O)N1 < 20%
N#Cc1ccc(OCCCOc2ccc(C=C3C(=O)NC(=O)NC3=O)cc2)cc1 < 20%

We next turn to a different molecule, shown below.
Query "Cc1ccc(OCCOc2ccc(C=C3C(=O)NC(=O)NC3=O)cc2)cc1" on Peroxisome proliferator-activated receptor gamma (Mus musculus); inhibition returned: < 20%

---

- measurement.target: Peroxisome proliferator-activated receptor gamma (Mus musculus) (UniProt P37238)
- Sequence (P37238 whole entry): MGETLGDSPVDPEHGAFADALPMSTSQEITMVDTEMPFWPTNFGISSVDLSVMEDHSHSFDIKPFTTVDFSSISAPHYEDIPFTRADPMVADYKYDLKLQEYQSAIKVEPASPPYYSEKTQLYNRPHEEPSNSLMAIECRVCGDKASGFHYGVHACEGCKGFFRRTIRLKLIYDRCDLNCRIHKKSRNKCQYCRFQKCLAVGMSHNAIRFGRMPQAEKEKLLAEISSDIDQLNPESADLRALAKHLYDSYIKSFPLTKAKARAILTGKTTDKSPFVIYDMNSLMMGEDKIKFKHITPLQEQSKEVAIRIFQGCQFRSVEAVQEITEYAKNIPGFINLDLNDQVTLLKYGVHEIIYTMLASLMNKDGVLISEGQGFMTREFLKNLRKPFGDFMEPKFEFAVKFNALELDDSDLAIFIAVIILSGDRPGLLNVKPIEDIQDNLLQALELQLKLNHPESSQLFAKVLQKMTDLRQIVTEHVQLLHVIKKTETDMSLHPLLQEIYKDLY
- experimental.protocol: Displacement of [3H]rosiglitazone from mouse PPARgamma receptor at 10 uM by scintillation proximation assay
measured.endpoint: inhibition

Answered cases to consult:
O=C1NC(=O)C(=Cc2ccc(OCCOc3ccccn3)cc2)C(=O)N1 < 20%
CC(C)c1ccc(OCCCOc2ccc(C=C3C(=O)NC(=O)NC3=O)cc2)cc1 < 20%
O=C1NC(=O)C(=Cc2ccc(OCCOc3ccc4ccccc4c3)cc2)C(=O)N1 < 20%
O=C1NC(=O)C(=Cc2ccc(OCCn3c4ccccc4c4ccccc43)cc2)C(=O)N1 < 20%

We next turn to a different compound, shown below.
The reported inhibition of the compound "O=C1NC(=O)C(=Cc2ccc(OCCn3ccc4cccnc43)cc2)C(=O)N1" was < 20%

---

- measurement.target: Peroxisome proliferator-activated receptor gamma (Mus musculus)
- experimental.protocol: Displacement of [3H]rosiglitazone from mouse PPARgamma receptor by scintillation proximation assay
measured.endpoint: pIC50
# log scale: pIC50 equals minus log10 of the concentration in mol/L

Answered cases to consult:
O=C1NC(=O)C(=Cc2ccc(OCCN3c4ccccc4Oc4ccccc43)cc2)C(=O)N1 6.30
COc1ccc(OCCOc2ccc(C=C3C(=O)NC(=O)NC3=O)cc2)cc1 6.70
O=C1NC(=O)C(=Cc2ccc(Oc3ccccc3)cc2)C(=O)N1 7.00
O=C1NC(=O)C(=Cc2ccc(OCCOc3ccc([N+](=O)[O-])cc3)cc2)C(=O)N1 5.60
N#Cc1ccc(OCCOc2ccc(C=C3C(=O)NC(=O)NC3=O)cc2)cc1 6.70

We next turn to a different molecule, shown below.
The reported pIC50 of the molecule "Cc1ccc(OCCOc2cccc(C=C3C(=O)NC(=O)NC3=O)c2)cc1" was 6.10
